- procedureText: soluble on expression in E. coli; label from the status in PepcDB or PDB records
property: soluble on expression in E. coli

Some solved entries appear below for comparison.
MSLAKVLVIDEDRSTLARLELLLTKDGYETVTASTGTDGLNRYVERYPDLVILDVFLSDVGGFTVLEELLEENEQAMVILMTAQLDMETAIRAMKLGAFDYVPKTADMAELLSVVHKASNTLETDRQQGGLSGEAFRNYKAGDIIGAGREMREIFKMVGVLSRSRATVLIEGESGTGKELVAKVIHKHTSSNEPFIAVNCSAIVETLLESELFGHEKGSFTSAFNRQLGKFELGRYGTVFLDEISEMSINLQAKLLRVLQEMEFERVGGKDKIQVHARIITATNKNLRTLVREGKFRADLYYRLNIVSLKIPPLRERQEDIPLLVNHLIAKIGRDLSRRISGVSEEVMEAFLRYTWPGNVRELENLLVRAGVMAKGRILDKSDFPELFKESGEGHHHHHH: not soluble
MAHHHHHHMSYQPPYGYASSPQASPYFPGGNYYSTPPPIPQQQPFQTSPLFGTEQEAVQWFRAVSSSSGGYISVPQLQSALSQGGMNFSYATTERLISMFDANLDGAIDFTEFQELHRYILSMRGGFSQRDTSRDGLLEGNEVRMALSANFYQVDDNTFQTLMRKFDRRKRGSLGFDDYIELSLFVGKANDAFKAQSQGKASATFSFSSFLSAGASLL: soluble
MGSDKIHHHHHHAQRVITASGKYITKNIKVTRFDQIYLKGSPTIEYTQSPGASKVQIAGSDNLVDLVECRVEGSTLIVNMKSRTNISYGKEGRLKILVSSPMLKSASLQGSGDIHLGSLKVEGLDVSLTGSGDIVAENITCNSDFSALLKGSGDIDVKGQLRAKSVNLNLQGSGDLKVAGVTGSEISAMLQGSGDLKVGSTNITSTVMAKLSGSGDMDVLDIRANSVSGQLDGSGDMTLSGSACNATLVLNRSGELSARKLDAENVTAHVNGSGEISCTATKTLETNIQGSGEISYKGNPSIRSTGKNHLNRL: not soluble
MTVQIPKLLFLHGFLQNGKVFSEKSSGIRKLLKKANVQCDYIDAPVLLEKKDLPFEMDDEKWQATLDADVNRAWFYHSEISHELDISEGLKSVVDHIKANGPYDGIVGFSQGAALSSIITNKISELVPDHPQFKVSVVISGYSFTEPDPEHPGELRITEKFRDSFAVKPDMKTKMIFIYGASDQAVPSVRSKYLYDIYLKAQNGNKEKVLAYEHPGGHMVPNKKDIIRPIVEQITSSLQEASE: soluble
MGSDKIHHHHHHYGAQAYGMGGGGGGYNRPMNSYGNGYNNGGGFNNYGNGGGFGGNNYNNGPPPFDGGYNRPYGGGGGGGYGRPQGYVPPPPPPPTQPEPEPEPRPEPQPEPQPEPQPEPQPEPQPEPHPEPAPEPIVKPYNSYAQPHNSYVRYGGK: not soluble
MSSLCLQRLQEERKKWRKDHPFGFYAKPVKKADGSMDLQKWEAGIPGKEGTNWAGGVYPITVEYPNEYPSKPPKVKFPAGFYHPNVYPSGTICLSILNEDQDWRPAITLKQIVLGVQDLLDSPNPNSPAQEPAWRSFSRNKAEYDKKVLLQAKQYSK: soluble
MGFWCRMSENQEQEEVITVRVQDPRVQNEGSWNSYVDYKIFLHTNSKAFTAKTSCVRRRYREFVWLRKQLQRNAGLVPVPELPGKSTFFGTSDEFIEKRRQGLQHFLEKVLQSVVLLSDSQLHLFLQSQLSVPEIEACVQGRSTMTVSDAILRYAMSNCGWAQEERQSSSHLAKGDQPKSCCFLPRSGRRSSPSPPPSEEKDHLEVWAPVVDSEVPSLESPTLPPLSSPLCCDFGRPKEGTSTLQSVRRAVGGDHAVPLDPGQLETVLEK: soluble
MGHHHHHHSHMSSPSRKRTIAESKKKHEEKQMKAQQLREKLREEKTLKLQKLLEREKDVRKWKEELLDQRRRMMEEKLLHAEFKREVQLQAIVKKAQEEEAKVNEIAFINTLEAQNKRHDVLSKLKEYEQRLNELQEERQRRQEEKQARDEAVQERKRALEAERQAR: soluble

Below are 4 sequences. Give each one its soluble on expression in E. coli.
1. MSLPLPKAELHLHIEGTLEPELAFALAARNGVPLPYAHTDELRKAYQFDDLQSFLNLYYELMAVLRTEQDFEDLANAYLPRAAAQGVRHAEIFFDPQAHIARGVAMGTVVEGLWRALGRSTENHGVSTQLIMCFLRDESAESALETLEAAKPYLDRIIGIGLDSAEVGHPPAKFREVYEAAAALGLRRVAHAGEEGPPEYITEALDVLGVERIDHGLRCMEDDALVERLVRERVPLTLCPLSNVRLRAVDVLAEHPLPAMLDAGLLCTVNSDDPAYFGGYVADNFHAVRDALGLDQERMRELARNSFVASFLEHDEERRARYLAEVEAYDFPGEGHHHHHH
2. MWTDAGGQVHEAASGDVRIASLVPSITELLFDLGLADQLVARTGFCIHPEPAVRAVAKVGGTKDVKLDRLRALAPTHVVVNIDENRRETVDEIRTFVPHVIVTHPCAPEDNLALYRLLGGIFGRRPQAEALVGQLRGELDAIQAQTWPARRVLYAIWQDPWMTVSRATYISRMLALVNWATWPDDADTSDTPAACVDGDCSRPNAPGERYPTFRWSDALVRELDAVLLSTEPYRFTEDHADALERQIGKPVLLVDGEMLSWYGSRAVAGARYLRSLAQGFLEHHHHHH
3. MLPGTFFEVLKNEGVVAIATQGEDGPHLVNTWNSYLKVLDGNRIVVPVGGMHKTEANVARDERVLMTLGSRKVAGRNGPGTGFLIRGSAAFRTDGPEFEAIARFKWARAALVITVVSAEQTK
4. VTTRQEKAAQTRRDLLDAARVVFERNGYLNATITDITTEAGKAAGSFYNHFDGKEALLLALADDIGDDADALITTSPDDLRNLGPHLAVFWQLQSRHRPVMAALRDAALVDPEFAQRMHDFGI

// result
1: soluble; 2: soluble; 3: soluble; 4: not soluble

* * *

- procedureText: soluble on expression in E. coli; label from the status in PepcDB or PDB records
property: soluble on expression in E. coli

SMFRDQVGVLAGWFKGWNECEQTVALLSLLKRVSQTQARFLQLCLEHSLADCAELHVLEREANSPGIINQWQQESKDKVISLLLTHLPLLKPGNLDAKVEYMKLLPKTLAHSIEHNQHIEESRQLLSYALIHPATSLEDRSALAMWLNHLEDRTSTSFGGQNRGRSDSVDYGQTHYYHQRQNSDDKLNGWQNSRDSGICINASNWQDKSMGCENGHVPLYSSSSVPTTINTIGTSTSTSKFPGIPLT: soluble
MSLSTGDASGAPAVWSHGYTEASGVKNKLCVAALSVNNFCDNREALYGVFDGDRNVEVPYLLQCTMSDILAEELQKTKNEEEYMVNTFIVMQRKLGTAGQKLGGAAVLCHIKHDPVDPGGSFTLTSANVGKCQTVLCRNGKPLPLSRSYIMSCEEELKRIKQHKAIITEDGKVNGVTESTRILGYTFLHPSVVPRPHVQSVLLTPQDEFFILGSKGLWDSLSVEEAVEAVRNVPDALAAAKKLCTLAQSYGCHDSISAVVVQLSVTEDEGHHHHHH: soluble

* * *

- procedureText: soluble on expression in E. coli; label from the status in PepcDB or PDB records
property: soluble on expression in E. coli

MDIVQLGPAELKAWMDEGRMFCLLDVRTDEETAVCSLPNALHIPMNLIPLRQNELPDDVPLVVYCHHGIRSLHTAMYLADAGFENLYNLQGGIDAWAAEIDGNMMRY: not soluble
MGSDKIHHHHHHMGTCLLSGLSEPSGGISEHLRGQTDQLGFRQFPHGLSGITQPCRGHRAPLAGLHPRYLRFSQSTPAHFVILTTESMTPTPEIPEPHYIGHRQRLKKKFFKCGLQALHDYEAVELLLSYAIPRKDIKSLSKDLLERFGSLKGIMDAELEELTAVRGISAHAAGLVRMVKEMSALYLQEKAREKPQISCTGELLDFCKTALGGLKDENFCVLYLDTQNRIIAFETIQKGIVNQAVVYPRQVIERALSHKSSALILVHNHPSGFVKPSDADIRLTRTITDTAKLLDIMVHDHLIIGENRFFSFREEGIMPL: not soluble

* * *

- procedureText: soluble on expression in E. coli; label from the status in PepcDB or PDB records
property: soluble on expression in E. coli

MITQNIESLNNIAKIQHAANTDYLTDLANRRAFFRSAESRIKEYINKKVPYCLAMIDVDFFKKVNDTYGHDSGDQVLKVIALYMRKHFGAGLTARLGGEEFAVLLHGLDADYLHNKLDDFRREIAVSSIPAGDTSISITLSLGVVFDSEDELSKQMNEADNALYAAKENGRNQIVVFGAELDDLEHHHHHH: soluble
EGKTSSASPNNPQELKRRVIEEGFRRAGIEFGGLKGNSLEALRQFGDPMMATVVGLSLGFKGDVVLAGGTQMLAVAAILKGLGEDLSRFMIATTRWVVEDKSATFIKTAREIGIISYAADLDFSKSEFKGLRDYEKGYVKEGVGAGGATWLAV: not soluble
GSPALDTGTTEEDRLKIDVIDWLVFDPAQRAEALKQGNAIMRKFLASKKHEAAKEVFVKIPQDSIAEIYNQCEEQGMESPLPAEDDNAIREHLCIRAYLEAHETFNEWFKHMNSVPQKPALIPQPTFTEKVAHEHKEKKYEMDFGIWKGHLDALTADVKEKMYNVLLFVDGGWMVDVREDAKEDHERTHQMVLLRKLCLPMLCFLLHTILHSTGQYQECLQLADMVSSERHKLYLVFSKEELRKLLQKLRESSLMLLDQGLDPLGYEIQLSGRIVTD: soluble
MTTSLHRLEALAHPARVRIVRLLAELPDEETAKDPRCGTAYGVCFCHLKEKTGLSAPTVSHHLRILREAGLVEGVRVGRWTYYRLRPGALEAVARELLGLAQRARALEERSA: soluble
MGSDKIHHHHHHMDIPWLVERDDRNERIVLSIKTNAKEALENAYRKKSRVTGKMIAYVHDSCANFFCEEGWLQEGAVSTYFHNGQANVFSFFLKEDRQNSDHERLHREVLSYVQKIERTLELSSHAVQRLNEADTDSLAQLYRHVFERYPTDVFSAQYLQQTMKEGAKFVGVKEGTDIICAASAVPNGFGGWEITDCATKKEARGNGYLSSVLCELEQWLWEEGEENVYSITRSHSFGMNVTIKKRGFSYEGTMVNNCIIGTGFEDMNIWTKRLTATNIC: not soluble

Below are 2 sequences. Give each one its soluble on expression in E. coli.
1. MDLLERLGLGGRRVLILHHDDLGLTHAQNGAYQALGLPTGSVMVPGAWASGVKGEDLGVHLVLTSEWPAPRMRPLTEGESLRDEAGYFPESLEALWRKARAEEVERELKAQIQAAAKLFSPTHLDAHQGAVLRPDLAEVYLRLAEAYRLVPLVPESLEGLGVPPPFLPELERLLYETPFPQVRFLDPYGLPPEERLGFYLDLAHLPPGLYYLVHHSALPTPEGRALPDWPTREADYFALSHPEVRRVLAEFHPLTWRAVREALF
2. MAKNRFVRDVRLIASTSGDPIDAGQNGELLKSLYYQIAVHCIVLPPLRERKEDILPLAIHFIRQGNERYGLHVEGLGDDVQEAFLAYSWPGNVRELEAVILETMATMEQEQTITLAHLPAPFRAKLAPDETKTDFLFDTEDILPLDKYMEEVEIYYIRKALQHHGFNITKTAKALGLSRQNLQYRIRKYQIDKEWG

// result
["soluble", "not soluble"]
